These measurements were taken from paper PMC5253651.

# assayed.system: UniProtKB P14324
# test: Isothermal titration calorimetry (ITC) binding assay
# Parameters: His6 (N); made in house; host or cells: Escherichia coli BL21 (DE3)
# experimental.parameters: ITC, 30 °C, titrated in absence of Mg2+, triplicate; read-out: Kd
property.label: Kd (µM)

P: CC(C)=CCC/C(C)=C/COP(=O)(O)OP(=O)(O)O [GPP, geranyl pyrophosphate]
Q: CC(C)=CCC/C(C)=C/CC/C(C)=C/CO[P@@](=O)(O)OP(=O)(O)O (stereo in doubt) [FPP, farnesyl pyrophosphate]
Compare the recorded Kd of P and Q ; state which is larger. State your choice using its label. P

* * *

# assayed.system: human FPPS (Homo sapiens, UniProt P14324)
# Sequence (P14324 67-419): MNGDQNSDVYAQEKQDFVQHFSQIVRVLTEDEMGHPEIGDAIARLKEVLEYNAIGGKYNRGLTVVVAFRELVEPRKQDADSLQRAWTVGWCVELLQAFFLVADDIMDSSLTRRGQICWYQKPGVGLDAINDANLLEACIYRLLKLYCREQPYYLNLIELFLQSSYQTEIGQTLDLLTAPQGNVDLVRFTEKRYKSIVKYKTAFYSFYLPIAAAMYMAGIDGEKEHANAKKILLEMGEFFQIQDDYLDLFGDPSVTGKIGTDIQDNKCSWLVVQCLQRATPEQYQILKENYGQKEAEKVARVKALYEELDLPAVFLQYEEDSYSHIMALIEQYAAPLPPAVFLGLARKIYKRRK
# test: Isothermal titration calorimetry (ITC) binding assay
# Set-up: His6 (N); made in house; host or cells: Escherichia coli BL21 (DE3)
# experimental.parameters: Kd, ITC, 30 °C, titrated in absence of Mg2+, triplicate
# Experimental: Ligand (DMAPP, GPP and FPP) and MgCl2 solutions were prepared in the used dialysate. Each titration experiment consisted of a first 1 μl injection followed by 18 2 μl injections of a ligand solution into the 204.1 μl calorimetric cell loaded with the enzyme solution. […] When added, the concentration of MgCl2 was 5 mM. Heats of dilution were measured by injecting the ligands into the buffer alone and subtracted from the corresponding titration data. […]
property.label: pKd
Lab note: report pKd as minus log10 of the concentration in molar units, number only.

Entry CC(C)=CCOP(=O)(O)OP(=O)(O)O [DMAPP, dimethylallyl pyrophosphate] needs its pKd filled in; supply it. 4.36

* * *

# assayed.system: human FPPS (Homo sapiens, UniProt P14324)
# test: Isothermal titration calorimetry (ITC) binding assay
# Parameters: His6 (N); made in house; host or cells: Escherichia coli BL21 (DE3)
# experimental.parameters: summary of ITC values in absence and presence of Mg2+; read-out: Kd for binding to the allosteric pocket
property.label: Kd

Report Kd, nothing else, for this compound: CC(C)=CCC/C(C)=C/CC/C(C)=C/CO[P@@](=O)(O)OP(=O)(O)O (stereo in doubt) [FPP, farnesyl pyrophosphate] 5 to 6 µM
